assay_comment: Particle size of the granular carbohydrate compounds used
Type: physicochemical
experimental_conditions: granular carbohydrate compound as used
Note that class boundaries on Particle Size D90 are bottom range (below 80 μm), center range (80 μm to below 500 μm), top range (500 μm or more)

molecule | category
OC[C@@H](O)[C@@H](O)[C@H](O)[C@H](O)CO [Mannitol, D-(−)-mannitol] | center range
O=C[C@H](O)[C@@H](O)[C@H](O[C@@H]1O[C@H](CO)[C@@H](O)[C@H](O)[C@H]1O)[C@H](O)CO | bottom range
O=C(CO)[C@@H](O)[C@H](O)[C@H](O)CO | top range
OC[C@H]1O[C@H](O[C@H]2O[C@H](CO)[C@@H](O)[C@H](O)[C@H]2O)[C@H](O)[C@@H](O)[C@@H]1O | bottom range
OC[C@@H](O)[C@H](O)[C@@H](O)CO | top range
OC[C@@H](O)[C@@H](O)[C@H](O)[C@@H](O)CO | center range
OC[C@@H](O)[C@@H](O[C@H]1O[C@H](CO)[C@@H](O)[C@H](O)[C@H]1O)[C@H](O)[C@@H](O)CO | bottom range
OC[C@@H](O)[C@@H](O)CO | center range

Numbers sourced from patent US9278071B2.
